Substrate: PET
Assay: Proxy for plastic degradation [HPLC-UV] (mmol)
Details: pH 8; 60 °C
measured_metric: Proxy for plastic degradation
Give bare numbers.

What does the record list as Proxy for plastic degradation for unnamed (protein) MSQYDPFLRGPFPAGVKTYEFEDTSRDRKLPIECWYPATSAYKGKDLDKETQDQFQLMEGFPKARQNAVRDAEIVDDSFPLIIFSHGFAGHRRQTTHFCTHLAGHGYIVASIDHIGSTLPEIMQMVMKVRKEGKLPDIEKFMEDVANDRPVDATFTIDTILAGELGPGIDPDRIGITGHSFGGWTTLVTTKSDTRIKAALPLAPGGGKSPLYGKDNPLTKMLTLDWERTVPTLYLTAEFDTLLPLDGMKDMFDRTPEPKGMVVLLNADHFHFCDGVEVVHDFFRQMGGFVGGMDPGGESEPAPMKKAKPSSELCPGKDAYTFIQGIGLAHMDAHLKGNSDAIELLKGDIAALLADRGVKVEVMQG ?
0
